tgt: HIV-1 JR-CSF Env I423A (HIV-1 (isolate JR-CSF)) (UniProt P20871)
measurement.protocol: cell-based or functional assay
outcome.measure: Fold IC50 increase relative to wild-type (fold)
Return type: number; implicit unit fold.

The examples below pair each entry with its known result.
Sample PGT-128 (antibody, V domains shown) VH: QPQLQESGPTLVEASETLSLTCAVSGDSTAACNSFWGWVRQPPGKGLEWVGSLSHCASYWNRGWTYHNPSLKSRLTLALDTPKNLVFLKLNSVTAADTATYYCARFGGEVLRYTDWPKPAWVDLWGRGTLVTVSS VL: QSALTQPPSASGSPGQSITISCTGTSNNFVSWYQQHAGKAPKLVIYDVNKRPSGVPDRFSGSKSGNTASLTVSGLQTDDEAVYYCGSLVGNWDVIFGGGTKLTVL — what was its Fold IC50 increase relative to wild-type? 2.6

Also PGT-126 (antibody, V domains shown) VH: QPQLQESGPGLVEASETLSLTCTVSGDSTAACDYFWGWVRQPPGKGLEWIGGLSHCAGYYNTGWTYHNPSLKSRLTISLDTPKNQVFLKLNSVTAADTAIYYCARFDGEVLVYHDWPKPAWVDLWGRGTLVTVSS VL: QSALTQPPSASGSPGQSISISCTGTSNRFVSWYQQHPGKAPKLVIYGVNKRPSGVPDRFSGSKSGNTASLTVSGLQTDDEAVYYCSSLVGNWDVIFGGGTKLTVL , if possible. 1.1

Also PGT-125 (antibody, V domains shown) VH: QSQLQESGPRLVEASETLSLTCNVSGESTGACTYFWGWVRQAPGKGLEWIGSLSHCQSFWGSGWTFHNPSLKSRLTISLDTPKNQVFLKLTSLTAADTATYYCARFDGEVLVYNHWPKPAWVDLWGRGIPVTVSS VL: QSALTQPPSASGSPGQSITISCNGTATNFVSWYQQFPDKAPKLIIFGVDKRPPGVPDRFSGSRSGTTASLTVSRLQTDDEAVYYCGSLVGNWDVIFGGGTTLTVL , if possible. 5

More entries:
Sample PGT-123 (antibody, V domains shown) VH: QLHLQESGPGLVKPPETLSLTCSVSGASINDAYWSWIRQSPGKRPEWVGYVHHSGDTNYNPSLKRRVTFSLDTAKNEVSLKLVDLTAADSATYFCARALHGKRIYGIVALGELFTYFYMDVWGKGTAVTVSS VL: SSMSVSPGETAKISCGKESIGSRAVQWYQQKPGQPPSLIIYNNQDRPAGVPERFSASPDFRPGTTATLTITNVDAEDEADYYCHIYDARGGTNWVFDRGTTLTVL — what was its Fold IC50 increase relative to wild-type? 1.5

Also PGT-135 (antibody, V domains shown) VH: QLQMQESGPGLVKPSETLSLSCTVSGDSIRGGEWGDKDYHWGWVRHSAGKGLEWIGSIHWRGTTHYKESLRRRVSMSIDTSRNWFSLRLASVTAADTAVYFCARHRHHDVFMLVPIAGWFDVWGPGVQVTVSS VL: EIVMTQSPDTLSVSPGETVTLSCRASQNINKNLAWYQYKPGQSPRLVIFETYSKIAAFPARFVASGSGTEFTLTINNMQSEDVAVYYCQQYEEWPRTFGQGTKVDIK , if possible. 0.1

Also PGT-127 (antibody, V domains shown) VH: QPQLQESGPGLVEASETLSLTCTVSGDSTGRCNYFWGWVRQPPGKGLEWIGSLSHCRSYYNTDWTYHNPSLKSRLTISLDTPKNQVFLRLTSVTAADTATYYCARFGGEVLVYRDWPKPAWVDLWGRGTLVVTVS VL: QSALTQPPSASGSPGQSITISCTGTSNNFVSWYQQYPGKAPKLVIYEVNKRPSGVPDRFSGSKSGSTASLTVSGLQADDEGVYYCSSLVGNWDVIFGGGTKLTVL , if possible. 0.5
